Origin of measurements: patent US20230286983A1

# experiment description: Brain to plasma ratio, 4ET-01-021 at 3.0 mg/kg PO
# Type: in vivo, male CD-1 mouse
# condition context: male, CD-1, mouse, plasma, oral, 3 mg/kg, 2 h, Plasma, read-out: Mean (plasma)
observable: concentration at 2 h (ng/mL)
Report only the number, with the unit ng/mL understood.

[Q] Supply reported concentration at 2 h belonging to this compound: CCC1=CC2(CCC1)NC(=O)c1c(C)cc(Nc3cc(N)ncn3)c(=O)n12 (stereo not shown)
[A] 416

====

# system under test: death-associated protein kinase-related apoptosis-inducing protein kinase 1 (DRAK1) (Homo sapiens, UniProt Q9UEE5)
# Sequence (Q9UEE5 1-414): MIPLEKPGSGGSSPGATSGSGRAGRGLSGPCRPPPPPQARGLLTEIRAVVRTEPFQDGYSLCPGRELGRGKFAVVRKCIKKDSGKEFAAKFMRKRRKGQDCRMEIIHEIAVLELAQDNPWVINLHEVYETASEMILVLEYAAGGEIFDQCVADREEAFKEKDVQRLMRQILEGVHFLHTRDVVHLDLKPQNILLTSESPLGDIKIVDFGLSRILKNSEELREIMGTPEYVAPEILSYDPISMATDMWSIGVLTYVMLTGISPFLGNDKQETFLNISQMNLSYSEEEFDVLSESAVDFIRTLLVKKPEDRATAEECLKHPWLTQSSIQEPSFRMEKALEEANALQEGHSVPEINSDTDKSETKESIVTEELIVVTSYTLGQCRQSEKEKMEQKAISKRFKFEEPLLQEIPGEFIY
# experiment description: Off-target kinase screen DRAK1
# Type: biochemical
# condition context: 1 μM test compound
observable: remaining activity at 1 µM (%)
# output: bare number, implied unit %

[Q] Give recorded remaining activity at 1 µM. Cc1cc(Nc2cc(NC(=O)C3CC3)ncn2)c(=O)n2c1C(=O)NC21CCOCC1 [Compound 4ET-03-009]
[A] 16

[Q] Given Cc1cc(Nc2cc(N)ncn2)c(=O)n2c1C(=O)NC21CCOCC1 [Compound 4ET-01-002] , respond with its remaining activity at 1 µM.
[A] 72

[Q] # return recorded remaining activity at 1 µM for input Cc1cc(Nc2cc(N)ncn2)c(=O)n2c1C(=O)NC21CCC(O)CC1 (stereo not shown) [Compound 4ET-01-005]
[A] 41

[Q] Assign remaining activity at 1 µM to the following record: Cc1cc(Nc2cc(NCCO)ncn2)c(=O)n2c1C(=O)NC21CCCCC1 [Compound 4ET-02-001]
[A] 81

====

# experiment description: Pharmacokinetic study, 4ET-03-009 at 10 mg/kg oral
# Type: in vivo, CD-1 male mice
# condition context: male, CD-1, mouse, plasma, oral, 10 mg/kg, 0.083 hours, read-out: Plasma Conc. (per mouse n = 3)
observable: concentration at 0.083 h (ng/mL)
Supply the numeric figure in ng/mL, leaving out any unit text.

[Q] Query concentration at 0.083 h for Cc1cc(Nc2cc(NC(=O)C3CC3)ncn2)c(=O)n2c1C(=O)NC21CCOCC1 [Compound 4ET-03-009]
[A] 79.8

====

# experiment description: Pharmacokinetic study, 4ET-01-021 with IV and PO dosing
# Format: in vivo, CD-1 male mice
# condition context: male, CD-1, mouse, plasma, po; orally dosed at 10 mg/kg, mean of 3 animals
observable: MRT inf (h)
Lab book: enter the figure in h, no units written.

[Q] Supply reported MRT inf belonging to this compound: CCC1=CC2(CCC1)NC(=O)c1c(C)cc(Nc3cc(N)ncn3)c(=O)n12 (stereo not shown)
[A] 8.51

====

# experiment description: Pharmacokinetic study, 4ET-03-009 at 20 mg/kg oral
# Assay type: in vivo, CD-1 male mice
# condition context: male, CD-1, mouse, plasma, oral, 20 mg/kg, 6 hours, read-out: Plasma Conc. (per mouse n = 3)
observable: concentration at 6 hours
Remember to put the unit after the number in your answer.

[Q] Give the reported value of concentration at 6 hours for this record: "Cc1cc(Nc2cc(NC(=O)C3CC3)ncn2)c(=O)n2c1C(=O)NC21CCOCC1"
[A] 93.6 ng/mL

====

# system under test: MNK2 (Homo sapiens, UniProt Q9HBH9)
# Sequence (Q9HBH9 whole entry): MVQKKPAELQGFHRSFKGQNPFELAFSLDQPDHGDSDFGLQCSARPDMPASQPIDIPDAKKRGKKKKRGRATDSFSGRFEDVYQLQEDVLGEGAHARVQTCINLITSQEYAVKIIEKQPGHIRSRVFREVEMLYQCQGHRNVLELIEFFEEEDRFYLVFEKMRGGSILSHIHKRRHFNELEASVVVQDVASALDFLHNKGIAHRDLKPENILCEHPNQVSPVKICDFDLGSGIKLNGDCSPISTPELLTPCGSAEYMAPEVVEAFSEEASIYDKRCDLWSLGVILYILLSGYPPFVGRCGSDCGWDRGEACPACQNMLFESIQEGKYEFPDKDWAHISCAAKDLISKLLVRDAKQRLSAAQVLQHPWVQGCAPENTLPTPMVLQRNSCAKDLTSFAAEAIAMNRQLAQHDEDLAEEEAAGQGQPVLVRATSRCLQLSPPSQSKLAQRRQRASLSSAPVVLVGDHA
# experiment description: MNK2 substrate phosphorylation assay
# Format: biochemical
# condition context: recombinant human kinase
observable: pIC50
The value called pIC50 is obtained by taking minus log10 of the concentration in mol/L.

[Q] Note pIC50 for the compound shown: Cc1cc(Nc2cc(NCCN3CCOCC3)ncn2)c(=O)n2c1C(=O)NC21CCCC1 [Compound 4ET-03-006]
[A] 8.23

[Q] Retrieve pIC50 measured for Cc1cc(Nc2cc(NCCNS(C)(=O)=O)ncn2)c(=O)n2c1C(=O)NC2(C)C [Compound 4ET-03-012] and print it.
[A] 6.56

[Q] Give me measured pIC50, please, for this compound: Cc1cc(Nc2cc(NC(=O)C3CC3)ncn2)c(=O)n2c1C(=O)NC21CCOCC1 [Compound 4ET-03-009]
[A] 8.59

[Q] Specify measured pIC50 for Cc1cc(Nc2cc(N)ncn2)c(=O)n2c1C(=O)NC21C[C@H]2COC[C@H]2C1 (single isomer, unassigned) [Compound 4ET-01-014B] .
[A] 8.34

====

# experiment description: Pharmacokinetic study, 4ET-03-009 at 20 mg/kg oral
# Type: in vivo, CD-1 male mice
# condition context: male, CD-1, mouse, plasma, oral, 20 mg/kg, 0.25 hours, read-out: Plasma Conc. (per mouse n = 3)
observable: concentration at 0.25 hours (ng/mL)
Please respond with the number in ng/mL and leave the unit unwritten.

[Q] Entry Cc1cc(Nc2cc(NC(=O)C3CC3)ncn2)c(=O)n2c1C(=O)NC21CCOCC1 [Compound 4ET-03-009] needs its concentration at 0.25 hours filled in; supply it.
[A] 665

====

# experiment description: Pharmacokinetic study, 4ET-03-009 at 20 mg/kg oral
# Assay type: in vivo, CD-1 male mice
# condition context: male, CD-1, mouse, plasma, po, 20 mg/kg, individual animals, read-out: Cmax
# Procedure: Compound 4ET-03-009 was dissolved in a 10% dimethylacetamide (DMA)/3000 polyethylene glycol (PEG) 300/400% propylene glycol (PG)/200% water solvent. […] Plasma was collected at indicated timepoints and plasma concentration of compound 4ET-03-009 was measured using liquid chromatography-mass spectrometry/mass spectrometry (LC-MS/MS). Results are presented in FIG. 1 and Tables 3, 4, and 5. […]
observable: Cmax (ng/mL)
Record the value in ng/mL, omitting the unit from your answer.

[Q] Return the recorded Cmax value; entry: "Cc1cc(Nc2cc(NC(=O)C3CC3)ncn2)c(=O)n2c1C(=O)NC21CCOCC1"
[A] 666

====

# experiment description: Pharmacokinetic study, 4ET-03-009 at 10 mg/kg oral
# Type: in vivo, CD-1 male mice
# condition context: male, CD-1, mouse, plasma, oral, 10 mg/kg, 6 hours, mean n = 3, read-out: Plasma Conc. Mean
observable: concentration at 6 h (µg/mL)
Only the number, expressed in µg/mL, is required.

[Q] Look up and state reported concentration at 6 h for Cc1cc(Nc2cc(NC(=O)C3CC3)ncn2)c(=O)n2c1C(=O)NC21CCOCC1 [Compound 4ET-03-009]
[A] 0.0667

====

# experiment description: Pharmacokinetic study, 4ET-01-021 with IV and PO dosing
# Type: in vivo, CD-1 male mice
# condition context: male, CD-1, mouse, plasma, po; orally dosed at 3 mg/kg, mean of 3 animals; read-out: F (oral bioavailability)
# Description: 4ET-01-021 was dissolved in 10% dimethylacetamide (DMA)/90% propylene glycol (PG) for oral dosing and 10% DMI (dimethyl isosorbide)/15% EtOH (ethanol)/35% PG (propylene glycol)/40% NS (normal saline) for IV dosing. CD-1 male mice were dosed with 4ET-01-021 at 1.0 mg/kg (IV), 3.0 mg/kg (PO), or 10.0 mg/kg (PO). Plasma was collected at indicated timepoints and plasma concentration of 4ET-01-021 was measured using liquid chromatography-mass spectrometry/mass spectrometry (LC-MS/MS). […]
observable: bioavailability (%)
State just the number; it will be interpreted in %.

[Q] Report measured bioavailability; entry is CCC1=CC2(CCC1)NC(=O)c1c(C)cc(Nc3cc(N)ncn3)c(=O)n12 (stereo not shown) [Compound 4ET-01-021]
[A] 61.9

====

# experiment description: Pharmacokinetic study, 4ET-01-021 with IV and PO dosing
# Assay type: in vivo, CD-1 male mice
# condition context: IV 1.0 mg/kg, mean of 3 animals
observable: AUConf/D
Put your answer as a value accompanied by its unit after it.

[Q] Fill in reported AUConf/D for this entry: CCC1=CC2(CCC1)NC(=O)c1c(C)cc(Nc3cc(N)ncn3)c(=O)n12 (stereo not shown)
[A] 2420 kg·h/kL

====

# experiment description: Pharmacokinetic study, 4ET-01-021 with IV and PO dosing
# Assay type: in vivo, CD-1 male mice
# condition context: male, CD-1, mouse, plasma, po, 10 mg/kg, orally dosed at 10 mg/kg, mean of 3 animals; read-out: AUCinf
observable: AUC(0-inf) (ng·h/mL)
Quick reminder: number only, in ng·h/mL, skip the unit.

[Q] State, in one line, measured AUC(0-inf) of CCC1=CC2(CCC1)NC(=O)c1c(C)cc(Nc3cc(N)ncn3)c(=O)n12 (stereo not shown)
[A] 12000
